Source of measurements: patent US20200317802A1

Reported Human AlphaLISA % inhibition values follow for various binders
Target: T1, recombinant human ADAMTS5 (R&D Systems cat #2198-AD) (human, UniProt Q9UNA0 262-622, limits assumed)
T1 sequence: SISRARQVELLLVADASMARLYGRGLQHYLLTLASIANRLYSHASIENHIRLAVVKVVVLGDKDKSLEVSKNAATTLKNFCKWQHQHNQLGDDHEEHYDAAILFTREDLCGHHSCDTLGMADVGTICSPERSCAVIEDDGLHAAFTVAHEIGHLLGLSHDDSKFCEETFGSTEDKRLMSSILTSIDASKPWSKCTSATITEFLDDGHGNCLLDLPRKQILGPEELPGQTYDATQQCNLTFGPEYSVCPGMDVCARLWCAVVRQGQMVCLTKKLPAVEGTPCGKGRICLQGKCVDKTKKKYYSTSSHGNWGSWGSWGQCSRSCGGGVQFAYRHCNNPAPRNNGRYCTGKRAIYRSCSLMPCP
Assay: cell-based or functional assay

BINDER	MEASURE_UNIT	Human AlphaLISA % inhibition
Nanobody 3D01 (VHH, tagged as tested (anti-Flag detection, IMAC); also called 03D01) VHH: EVQLVESGGGLVQAGGSLRLSCAPSGFTFSPYYMGWFRQAPGKERDFVAAISRSRGTTYYLDSTEGRFTISRDNANDTVYLQMNSLNPEDTAVYYCAAGRSPGDPSRTYLYDYWGQGTLVTVSS	%	96
Nanobody 9D03 (VHH, tagged as tested (anti-Flag detection, IMAC); also called 09D03; 9D3) VHH: EVQLVESGGGLVQSGGSLRLSCAASGSAVSVNAMAWYRQAPGKQRDFVAGISRSAGRTYYTDSVKDRFTIARDSAKNTVYLQMNRLKPEDTAVYYCAADLDPNRIFSRDEAAYWGQGTLVTVSS	%	100
Nanobody 2A02 (VHH, tagged as tested (anti-Flag detection, IMAC); also called 02A02) VHH: EVQLVESGGGLVQPGGSLRLSCAASRRTFSSYVMAWFRQAPGKEREFVAAISRSGDSTYYYDSLEGRFTISRDNAKNTVHLQMNSLKPEDTAVYICAASRAPSFRTIDAINYYDYWGQGTLVTVSS	%	99
Nanobody 7B11 (VHH, tagged as tested (anti-Flag detection, IMAC); also called 07B11) VHH: EVQLVESGGGLVQPGGSLRLSCAASGSIFSINVMGWYRQAPGKQRELVAAIISGGRTNYADSVKGRFTISRDNSKNTVYLQMNSLRPEDTAVYYCNAEVDAGIYAYGYWGQGTLVTVSS	%	100
Nanobody 2A12 (VHH, tagged as tested (anti-Flag detection, IMAC); also called 02A12) VHH: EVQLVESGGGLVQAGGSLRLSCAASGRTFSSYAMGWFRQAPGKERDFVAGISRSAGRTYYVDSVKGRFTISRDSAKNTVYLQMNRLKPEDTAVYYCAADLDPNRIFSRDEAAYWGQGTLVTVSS	%	100
Nanobody 9D09 (VHH) VHH: EVQLVESGGGLVQAGGSLRLSCAASGLTFSSYTMGWFRQAPGQEREFVSAISWNTFTTYYVDSVKDRFTVSRDNAKNTLYLRMNSLKPEDTAVYYCAAAGGSPRQHEPYEYRVWGQGTLVTVSS	%	100
Nanobody 9D10 (VHH) VHH: EVQLVESGGGLVQAGGSLRLSCAASGRALSSSIMGWFRQAPGKEREFVAAITWSGGRAYYADVSDFEKGRFTISRDNGKNTVNLQMKGLKPEDTAVYYCAAALAIPVTMSPHEYPYWGQGTLVTVSS	%	100
Nanobody 2F03 (VHH, tagged as tested (anti-Flag detection, IMAC); also called 02F03; 2F3) VHH: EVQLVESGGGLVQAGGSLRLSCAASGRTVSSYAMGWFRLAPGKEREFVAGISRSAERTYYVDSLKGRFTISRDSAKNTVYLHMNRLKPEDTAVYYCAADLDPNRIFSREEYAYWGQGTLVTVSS	%	100
Nanobody 3B02 (VHH, tagged as tested (anti-Flag detection, IMAC); also called 03B02; 3B2) VHH: EVQLVESGGGFVQAGGSLRLSCVASRRTISSGTMGWFRQAPGKEREFVAAIRWSSGMPYYLDSVMDRFTISRDNAKNTVSLQMNSLQPEDTAVYYCAADRSAFRDPSFDVNYEYWGRGTLVTVSS	%	100
Nanobody 9A05 (VHH) VHH: EVQLVESGGGFVQAGGSLRLSCAASRRTISSGTMGWFRQAPGKEREFVAAIRWSSGITFYPDSVEGRFTISGDNAKNTVSLQMNSLKPEDTAVYYCAADRSALRDPSFEVNYEYWGRGTLVTVSS	%	100
Nanobody 11B06 (VHH, tagged as tested (anti-Flag detection, IMAC)) VHH: EVQLVESGGGLVQAGGSLRLSCAASGLTFRRNAMGWFRQAPGKERELLAGINWSGGTTYYVDSVKGRFTISRDNAKNTVDLQMISPKPEDTAVYYCAADGDIGTLVNDENPRYWGQGTLVTVSS	%	100
Nanobody 3B03 (VHH, tagged as tested (anti-Flag detection, IMAC); also called 03B03) VHH: EVQLVESGGDLVQPGGSLRLSCAASGSDVVVNDMGWYRQAPGKQRELVADITTGGRTNYADSVKGRFTISRDNVKNTVYLQMNSLKPEDTAVYYCNAQVGDSDDDVWYAYWGQGTLVTVSS	%	100
Nanobody 13E02 (VHH) VHH: EVQLVESGGGLVQAGGSLRLSCVASGSIFSIDAMGWYRQAPGKERELVASVTTGASPNYGDSVTGRFTASRDRAKNALYLQMNSLKPEDTAVYYCNLIMTIPGGSQIMYWGQGTLVTVSS	%	100
Nanobody 2C10 (VHH, tagged as tested (anti-Flag detection, IMAC); also called 02C10) VHH: EVQLVESGGGLVQAGGSLRLSCATSGFTFSPYYMGWFRQAPGKERDFVAAITRSRGTTYYLDSTEGRFTISRDNAKNTMYLQMNSLNPEDTAVYYCAAGRSPGDPSRTYLYEYWGQGTLVTVSS	%	100
Nanobody 2D12 (VHH, tagged as tested (anti-Flag detection, IMAC); also called 02D12) VHH: EVQLVESGGGLVQAGDSLRLSCAASGRTFSTYFVGWFRQAPGKERDFVAAISRNGARTYYYDSVAGLFTISRDNAKNTVYLQMSSLKPEDTAVYYCAAARISPSDPSNEDGYDYWGQGTLVTVSS	%	100
Nanobody 3D02 (VHH, tagged as tested (anti-Flag detection, IMAC); also called 03D02) VHH: EVQLVESGGGLVQAGASLRLSCATSGFTFSPYYMGWFRQAPGKERDFVAAISWSRGILYYTDSTEGRFTISRDNAKNTMYLQMDNLNPEDTAVYYCAASRSPGDPSRTYLYDYWGQGTLVTVSS	%	100
Nanobody 2D07 (VHH, tagged as tested (anti-Flag detection, IMAC); also called 02D07; 2D7) VHH: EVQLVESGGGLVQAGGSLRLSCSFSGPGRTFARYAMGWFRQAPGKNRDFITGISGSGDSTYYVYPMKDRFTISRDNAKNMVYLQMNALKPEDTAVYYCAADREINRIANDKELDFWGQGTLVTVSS	%	100
